Experiment: in vitro
Conditions: human, CC50 (uM) [SG]
Counter-ions that a name gives are not always drawn.
measured-endpoint: CC50 (µM)

>>> measured_value("CN[C@H]1CC[C@@H](c2ccc(Cl)c(Cl)c2)c2ccc(NC(=O)c3ccccc3)cc21 [Sertraline A-Ring Reverse Benzamide]")
3.67
>>> measured_value("CN[C@H]1CC[C@@H](c2ccc(Cl)c(Cl)c2)c2ccc(NS(=O)(=O)C3CC3)cc21")
7.45
>>> measured_value("CN[C@H]1CC[C@@H](c2ccc(Cl)c(Cl)c2)c2ccc(CNS(C)(=O)=O)cc21")
11.2
>>> measured_value("CN(C)[C@H]1CC[C@@H](c2ccc(Cl)c(Cl)c2)c2ccc(C(=O)NC3CC3)cc21")
25.4
>>> measured_value("CN[C@H]1CC[C@@H](c2ccc(Cl)c(Cl)c2)c2ccc(CSC)cc21 [Sertraline A-Ring Methylsulfide]")
6.18
>>> measured_value("CNCc1cc([N+](=O)[O-])ccc1Oc1ccc(SC)c(C)c1")
26.1
>>> measured_value("CN[C@H]1CC[C@@H](c2ccc(Cl)c(Cl)c2)c2ccccc21 [Sertraline HCL, Sertraline HCl, reference compound]")
11.7
>>> measured_value("CSc1ccc(Oc2ccc(S(=O)(=O)NCc3ccccc3)cc2CN(C)C)cc1C")
16.9
>>> measured_value("CSc1ccc(N2CN(C)Cc3cc(Br)ccc32)cc1C")
24.9
>>> measured_value("N[C@H]1CC[C@@H](c2ccc(Cl)c(Cl)c2)c2ccccc21")
8.98
